experiment: RP, Agilent ZORBAX RRHD Eclipse Plus C18, 50 × 2.1 mm, 1.8 µm, 30 °C, 0.4 mL/min, estimated dead time 0.28 min; A: water + 0.1% formic acid, pH 3; B: acetonitrile + 0.1% formic acid, pH 3; gradient (min/%B) 0/1 5/10 8/25 9.1/99 10/99 12/1; conditions: stereoisomer not certain
measured-endpoint: LC retention time (min)

compound: COc1ccc(C2Oc3cc(O)cc(O)c3CC2O)cc1O (stereo not given) [4'-O-methylepicatechin]
readout-units: min
LC retention time: 7.85
//
compound: COc1ccc(C=CC(=O)O)cc1OC1OC(C(=O)O)C(O)C(O)C1O (stereo not given) [Isoferulic acid-3-O-glucuronide]
readout-units: min
LC retention time: 6.36
//
compound: O=C(O)c1ccc(O)cc1O [2,4-Dihydroxybenzoic acid]
readout-units: min
LC retention time: 5.18

a: COc1ccc(CCC(=O)O)cc1OC1OC(C(=O)O)C(O)C(O)C1O (stereo not given) [Dihydro isoferulic acid-3-O-glucuronide]
b: O=C(O)c1cc(O)cc(O)c1 [3,5-Dihydroxybenzoic acid]
Query string: Thinking about recorded LC retention time values, which is higher, a or b ? Your answer should be the label attached to the chosen record.
Result string: a
(a: 6.49 min, b: 4.25 min)

1: COc1cc(CC(=O)O)ccc1O
2: COc1c(O)cc(C(=O)O)cc1OS(=O)(=O)O [4-O-methylgallic acid 3-O-sulfate]
3: O=C(CCc1ccc(O)cc1)c1c(O)cc(O)cc1O
Query string: Thanks in advance: please rank these 3 entries by LC retention time, highest to lowest. To answer, write out the labels according to the requested order.
Result string: 3, 1, 2
